target: human GcgR (Homo sapiens); test: Functional cAMP activity in the presence of 1% HSA; assay type: cell-based; conditions: read-out: cAMP Rel EC50, hGcgR
Sequence (P47871 26-477): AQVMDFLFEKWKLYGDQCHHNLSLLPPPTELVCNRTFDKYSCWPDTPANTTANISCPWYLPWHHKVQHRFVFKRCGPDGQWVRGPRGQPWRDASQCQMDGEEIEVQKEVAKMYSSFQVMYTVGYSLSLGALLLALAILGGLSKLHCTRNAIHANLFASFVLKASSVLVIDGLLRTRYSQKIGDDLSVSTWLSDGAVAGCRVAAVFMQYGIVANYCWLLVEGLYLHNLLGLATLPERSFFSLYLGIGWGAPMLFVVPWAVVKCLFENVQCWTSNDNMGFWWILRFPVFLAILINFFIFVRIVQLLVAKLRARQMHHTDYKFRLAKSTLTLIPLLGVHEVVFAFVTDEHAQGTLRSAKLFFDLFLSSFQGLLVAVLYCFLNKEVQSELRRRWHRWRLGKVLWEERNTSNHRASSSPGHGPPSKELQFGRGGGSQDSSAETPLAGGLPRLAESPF
pEC50: −log10 of the molar value. Starred links: 1 amine or outer side, 2 acyl side, 3 side chain; linkers in the order of their positions; H or OH if unused. Non-standard residues stand in square brackets, D forms with d. Groups on a side chain read outwards from the residue. No end group written: not given here. *: point of attachment. C18 diacid = O=C(O)CCCCCCCCCCCCCCCCC(=O)*; αMePhe(2-F) = C[C@](N)(Cc1ccccc1F)C(=O)O; γGlu = O=C(O)[C@H](CCC(=O)[*:2])N[*:1]; αMe4Pal = C[C@](N)(Cc1ccncc1)C(=O)O; αMeY = C[C@](N)(Cc1ccc(O)cc1)C(=O)O; 4Pal = N[C@@H](Cc1ccncc1)C(=O)O; αMeL = CC(C)C[C@](C)(N)C(=O)O; αMeS = C[C@](N)(CO)C(=O)O; Orn = NCCC[C@H](N)C(=O)O; Dap = NC[C@H](N)C(=O)O; AEEA = NCCOCCOCC(=O)O; Aib = CC(C)(N)C(=O)O
Class met: pEC50 at least 6. Class not met: pEC50 below 6.

substance: H-Y[Aib]QGTFTSDFS[Orn][αMeL]LDKK([AEEA-γGlu-C18 diacid])AQ[Aib]AFIEWLLEGGHSSGAPPPSGS-NH2 [Example 170]
class.label: not met
//
substance: H-Y[Aib]QGT[αMePhe(2-F)]TSD[4Pal]SI[αMeL]LD[Orn]K([AEEA-γGlu-C18 diacid])AQ[αMe4Pal][Orn]FI[dE]YLIEGGPSSGEPPPEGT-NH2 [Example 500]
class.label: met
//
substance: H-Y[Aib]QGT[αMePhe(2-F)]TSD[4Pal][αMeS]ILLD[Orn]K([γGlu-γGlu-C18 diacid])AQ[Aib][Orn]FI[dE][αMeY]LQEGGPSSGEPPPSGAEE-NH2 [Example 575]
class.label: met
//
substance: H-Y[Aib]QGTFTSD[4Pal]SQ[αMeL]LD[Orn]K([Glu-γGlu-C18 diacid])AQ[αMe4Pal]AFIEYLLAGGPSSGAPPPSGSEE-NH2 [Example 1057]
class.label: not met
//
substance: H-Y[Aib]QGT[αMePhe(2-F)]TSD[4Pal]SILLDKK([γGlu-γGlu-C18 diacid])AQ[Aib]AFIE[αMeY]LEEGGPSSGAPPPSGTGE-NH2 [Example 664]
class.label: met
//
substance: H-Y[Aib]QGTFTSD[4Pal]SQ[αMeL]LDKK([γGlu-γGlu-C18 diacid])AQ[αMe4Pal]AFIEYLIE[Aib]GPSSGAPPPSGE-NH2 [Example 882]
class.label: met
//
substance: H-Y[Aib]QGTFTSDFS[Orn][αMeL]LDKK([AEEA-γGlu-C18 diacid])AQ[Aib]AFIEYLLEGGPSSGAPPPEGT-NH2 [Example 160]
class.label: met
//
substance: H-Y[Aib]QGT[αMePhe(2-F)]TSD[4Pal][αMeS]ILLD[Orn]K([γGlu-γGlu-C18 diacid])AQ[Aib][Orn]FI[dE]YLIEGGPSSGEPPPEGTEE-NH2 [Example 556]
class.label: met
//
substance: H-Y[Aib]QGTFTSDFS[Orn][αMeL]LDKK([AEEA-γGlu-C18 diacid])AQ[αMe4Pal]AFIE[αMeY]LIEGGPSSGAPPPSGS-NH2 [Example 845]
class.label: met
//
substance: H-Y[Aib]QGTFTSD[4Pal]S[Orn][αMeL]LDKK([AEEA-AEEA-γGlu-C18 diacid])AQ[αMe4Pal]AFIEYLIE[Aib]GPSSGAPPPSGS-NH2 [Example 814]
class.label: met
//
substance: Y[Aib]QGT[αMePhe(2-F)]TSD[4Pal][αMeS]I[αMeL]LD[Orn]K([AEEA-γGlu-C18 diacid])AQ[Aib][Orn]FI[dE][αMeY]LIEGGPSSGAPEPSEG-NH2 [Example 429]
class.label: met
//
substance: H-Y[Aib]QGTFTSDFS[Orn][αMeL]LDKK([AEEA-γGlu-C18 diacid])AQ[Aib]AFIEYLIE[Aib]SPSSGAPPPSGS-NH2 [Example 804]
class.label: not met
//
substance: H-Y[Aib]QGTFTSDFS[Dap][αMeL]LDKK([AEEA-γGlu-C18 diacid])AQ[Aib]AFIEYLIE[Aib]GPSSGAPPPSGS-NH2 [Example 800]
class.label: not met
